# systemName: HIV-1 protease Mutant 9 (Human immunodeficiency virus type 1)
# experimentDescription: Ki against HIV-1 protease Mutant 9
# Format: biochemical
# assayContext: Mutant 9
Reported values of Ki for individual entries

Example entries and their recorded answers appear below.
Response field Ki (HIV-1 protease Mutant 9 (Human immunodeficiency virus type 1)) for item CC(C)CN(CC(O)C(Cc1ccccc1)NC(=O)OC1COC2OCCC12)S(=O)(=O)c1ccc2occ(CNS(=O)(=O)C(C)C)c2c1 (stereo not drawn) [Compound 115] : 0.27 nM

Record CC(C)CN(C[C@@H](O)[C@H](Cc1ccccc1)NC(=O)OC1COC2OCCC12)S(=O)(=O)c1ccc2occ(CNC(=O)c3ccco3)c2c1 (stereo partly drawn) [Compound 125] has HIV-1 protease Mutant 9 (Human immunodeficiency virus type 1) Ki equal to < 0.1 nM

# ---- query compound ----
// assay HIV-1 protease Mutant 9 (Human immunodeficiency virus type 1), entry CC(C)CN(C[C@@H](O)[C@H](Cc1ccccc1)NC(=O)OC1CO[C@H]2OCC[C@@H]12)S(=O)(=O)c1ccc2c(c1)CC(CO)O2 (stereo partly drawn) , Ki value = 9 nM

----------
# Tested on: HIV-1 isolates, Mutant 8
# experimentDescription: In vitro drug sensitivity of HIV-1 laboratory isolates, Mutant 8
# Format: cell-based
# assayContext: Mutant 8; read-out: IC50 Mutant 8
measurementKind: pIC50
// field semantics: pIC50 = negative decimal log of concentration (mol/L)

Recorded pIC50, per entry:
Tested on HIV-1 isolates, Mutant 8: CC(C)CN(C[C@@H](O)[C@H](Cc1ccccc1)NC(=O)OC1COC2OCCC12)S(=O)(=O)c1ccc2occ(CNC(=O)c3cccnc3)c2c1 (stereo partly shown) [Compound 118] . Observed pIC50: 7.46

Query CC(C)CN(C[C@@H](O)[C@H](Cc1ccccc1)NC(=O)OC1COC2OCCC12)S(=O)(=O)c1ccc2occ(CN3CCOCC3)c2c1 (stereo partly shown) [Compound 108] on HIV-1 isolates, Mutant 8; pIC50 returned: 7.42

Record for CCC(=O)NCc1coc2ccc(S(=O)(=O)N(CC(C)C)C[C@@H](O)[C@H](Cc3ccccc3)NC(=O)OC3COC4OCCC34)cc12 (stereo partly shown) [Compound 113] under target or system HIV-1 isolates, Mutant 8: pIC50 reported as 7.70

***
Readout pIC50 for CC(C)CN(C[C@@H](O)[C@H](Cc1ccccc1)NC(=O)OC1COC2OCCC12)S(=O)(=O)c1ccc2occ(CN3CCCCC3)c2c1 (stereo partly shown) [Compound 109] , test system HIV-1 isolates, Mutant 8, was 7.52

Log: HIV-1 isolates, Mutant 8, compound CCOC(=O)N(CCOC)Cc1coc2ccc(S(=O)(=O)N(CC(C)C)C[C@@H](O)[C@H](Cc3ccccc3)NC(=O)OC3COC4OCCC34)cc12 (stereo partly shown) [Compound 126] , pIC50 = 7.22

For the compound CC(C)CN(C[C@@H](O)[C@H](Cc1ccccc1)NC(=O)OC1COC2OCCC12)S(=O)(=O)c1ccc2occ(CNCC(=O)OC(C)(C)C)c2c1 (stereo partly shown) [Compound 110] , the measured pIC50 on HIV-1 isolates, Mutant 8 was 7.48

Reported HIV-1 isolates, Mutant 8 pIC50 for item CC(=O)NCc1coc2ccc(S(=O)(=O)N(CC(C)C)C[C@@H](O)[C@H](Cc3ccccc3)NC(=O)OC3COC4OCCC34)cc12 (stereo partly shown) [Compound 107] was 7.55

----------
# systemName: wild type HIV-1 protease (Human immunodeficiency virus type 1 group M subtype B, UniProt P04585)
# Construct: over 45 of the 99 amino acids of the HIV protease monomer
# experimentDescription: Ki against wild type (WT) HIV-1 protease
# Type: biochemical
# assayContext: WT
pKi: −log10 of the molar value.
measurementKind: pKi

// pKi value for CC(C)CN(C[C@@H](O)[C@H](Cc1ccccc1)NC(=O)OC1CO[C@H]2OCC[C@@H]12)S(=O)(=O)c1ccc2c(c1)CC(CO)O2 (stereo partly shown) : > 10.00

The measured pKi associated with CC(C)CN(CC(O)C(Cc1ccccc1)NC(=O)OC1COC2OCCC12)S(=O)(=O)c1ccc2[nH]nc(NC3CCCCC3)c2c1 (stereo not shown) reads > 10.00

pKi measured on CC(C)CN(C[C@@H](O)[C@H](Cc1ccccc1)NC(=O)OC1CO[C@H]2OCC[C@@H]12)S(=O)(=O)c1ccc2c(c1)CCO2 (stereo partly shown) = > 10.00

Continuing:
Notebook: CC(=O)NCc1coc2ccc(S(=O)(=O)N(CC(C)C)C[C@@H](O)[C@H](Cc3ccccc3)NC(=O)OC3COC4OCCC34)cc12 (stereo partly shown) , pKi read as > 10.00

Memo: CC(C)CN(CC(O)C(Cc1ccccc1)NC(=O)OC1COC2OCCC12)S(=O)(=O)c1ccc2occ(CO)c2c1 (stereo not shown) , reported pKi: > 10.00

# molecule Cc1n[nH]c2ccc(S(=O)(=O)N(CC(C)C)CC(O)C(Cc3ccccc3)NC(=O)OC3COC4OCCC34)cc12 (stereo not shown) ; its pKi = > 10.00

GET /value?item= CC(C)CN(CC(O)C(Cc1ccccc1)NC(=O)OC1COC2OCCC12)S(=O)(=O)c1ccc2occ(CNC(=O)c3ccccc3)c2c1 (stereo not shown) &field=pKi returns 10.00

Notebook: CC(C)CN(C[C@@H](O)[C@H](Cc1ccccc1)NC(=O)OC1COC2OCCC12)S(=O)(=O)c1ccc2occ(CNCCc3ccccn3)c2c1 (stereo partly shown) , pKi read as > 10.00

In plain terms, CC(C)CN(C[C@@H](O)[C@H](Cc1ccccc1)NC(=O)OC1COC2OCCC12)S(=O)(=O)c1ccc2occ(CNC(=O)CSCc3ccccc3)c2c1 (stereo partly shown) has a documented pKi of 9.92

The measured pKi associated with CCCC[S+]([O-])Cc1coc2ccc(S(=O)(=O)N(CC(C)C)C[C@@H](O)[C@H](Cc3ccccc3)NC(=O)OC3COC4OCCC34)cc12 (stereo partly shown) reads > 10.00

The molecule listed as CC(C)CN(CC(O)C(Cc1ccccc1)NC(=O)OC1COC2OCCC12)S(=O)(=O)c1ccc2oc(CN)cc2c1 (stereo not shown) shows pKi equal to > 10.00

Recorded result, CC(C)CN(CC(O)C(Cc1ccccc1)NC(=O)OC1COC2OCCC12)S(=O)(=O)c1ccc2[nH]nc(NCC(C)(C)C)c2c1 (stereo not shown) , pKi: 9.89

# pKi (molecule: CCOC(=O)NCc1coc2ccc(S(=O)(=O)N(CC(C)C)C[C@@H](O)[C@H](Cc3ccccc3)NC(=O)OC3COC4OCCC34)cc12 (stereo partly shown) ) is > 10.00

----------
# System: HIV-1 isolates, WT
# experimentDescription: In vitro drug sensitivity of HIV-1 laboratory isolates, WT
# Assay type: cell-based
# assayContext: Human immunodeficiency virus 1; HIV-1 isolate WT
measurementKind: IC50 (nM)
Write the number in nM without appending the unit.

Record CC(C)CN(CC(O)C(Cc1ccccc1)NC(=O)OC1COC2OCCC12)S(=O)(=O)c1ccc2onc(CNCc3ccccc3)c2c1 (stereo not shown) [Compound 232] / HIV-1 isolates, WT, IC50 recorded as 7

Continuing:
Reading of IC50 for CCOC(=O)C(C)NCc1noc2ccc(S(=O)(=O)N(CC(C)C)CC(O)C(Cc3ccccc3)NC(=O)OC3COC4OCCC34)cc12 (stereo not shown) [Compound 206] with HIV-1 isolates, WT: 5

Record for CC(C)CN(CC(O)C(Cc1ccccc1)NC(=O)OC1COC2OCCC12)S(=O)(=O)c1ccc2onc(CNC(=O)c3ccco3)c2c1 (stereo not shown) [Compound 240] under target or system HIV-1 isolates, WT: IC50 reported as 6.5

Param item: Cc1nc(CNCc2noc3ccc(S(=O)(=O)N(CC(C)C)CC(O)C(Cc4ccccc4)NC(=O)OC4COC5OCCC45)cc23)cs1 (stereo not shown) [Compound 242] ; param system: HIV-1 isolates, WT; output IC50: 7

Fill in: HIV-1 isolates, WT IC50 for CC(C)CN(CC(O)C(Cc1ccccc1)NC(=O)OC1COC2OCCC12)S(=O)(=O)c1ccc2onc(CNC(=O)C(C)C)c2c1 (stereo not shown) [Compound 220] = 7

Bench note, HIV-1 isolates, WT: entry CC(C)CN(CC(O)C(Cc1ccccc1)NC(=O)OC1COC2OCCC12)S(=O)(=O)c1ccc2onc(CNS(C)(=O)=O)c2c1 (stereo not shown) [Compound 207] , its IC50 = 22

The molecule CC(C)CN(CC(O)C(Cc1ccccc1)NC(=O)OC1COC2OCCC12)S(=O)(=O)c1ccc2onc(CSCC(F)(F)F)c2c1 (stereo not shown) [Compound 233] , when measured on HIV-1 isolates, WT, yielded IC50 of 4

Here CC(=O)N(Cc1noc2ccc(S(=O)(=O)N(CC(C)C)CC(O)C(Cc3ccccc3)NC(=O)OC3COC4OCCC34)cc12)CC(F)(F)F (stereo not shown) [Compound 247] was tested on HIV-1 isolates, WT, and its IC50 came to 5.4

Item: Cc1ccc(S(=O)(=O)N(C)Cc2noc3ccc(S(=O)(=O)N(CC(C)C)CC(O)C(Cc4ccccc4)NC(=O)OC4COC5OCCC45)cc23)cc1 (stereo not shown) [Compound 211] | System: HIV-1 isolates, WT | IC50: 2.1

Source: patent US20100056596A1
